Target: UniProt:O75914
Sequence (O75914 whole entry): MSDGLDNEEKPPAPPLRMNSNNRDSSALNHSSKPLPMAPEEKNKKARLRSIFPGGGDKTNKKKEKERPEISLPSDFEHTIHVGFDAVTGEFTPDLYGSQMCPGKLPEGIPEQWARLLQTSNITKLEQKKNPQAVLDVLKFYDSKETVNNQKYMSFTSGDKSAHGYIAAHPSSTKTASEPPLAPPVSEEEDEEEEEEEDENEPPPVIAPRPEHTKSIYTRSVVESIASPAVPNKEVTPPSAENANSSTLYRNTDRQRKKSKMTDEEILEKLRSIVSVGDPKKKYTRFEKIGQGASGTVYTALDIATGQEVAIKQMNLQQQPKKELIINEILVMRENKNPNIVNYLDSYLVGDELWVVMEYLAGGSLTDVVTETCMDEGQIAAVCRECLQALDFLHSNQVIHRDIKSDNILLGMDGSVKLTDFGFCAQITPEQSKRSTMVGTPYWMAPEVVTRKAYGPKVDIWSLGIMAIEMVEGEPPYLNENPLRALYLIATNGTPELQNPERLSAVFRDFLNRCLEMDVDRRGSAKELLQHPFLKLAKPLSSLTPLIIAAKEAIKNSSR
Test: Z'Lyte fluorescence-based (FRET) PAK kinase assay, PAK3
Type: biochemical
Details: Table 1 of Example 100; 100 μM ATP
pIC50: −log10 of the molar value.
Here, each record is paired with measured pIC50 data.

# count of solved cases: 4
CN1CCN(c2ccc(Nc3ncc4ccc(=O)n(C5CCc6ccccc65)c4n3)cc2)CC1 (centres unmarked) = 5.00 to 6.00
CN1CCN(c2ccc(Nc3ncc4ccc(=O)n(Cc5ccccc5SC(F)(F)F)c4n3)cc2)CC1 = > 6.00
O=c1ccc2cnc(Nc3ccc(N4CCNCC4)cc3)nc2n1Cc1ccccc1C(F)(F)F = > 6.00
Cc1cc(F)ccc1Cn1c(=O)ccc2cnc(Nc3ccc(N4CCN(C)CC4)cc3)nc21 = 5.00 to 6.00

Requested field: pIC50. Item: CN1CCN(c2ccc(Nc3ncc4ccc(=O)n(CC(=O)c5ccccc5)c4n3)cc2)CC1 5.00 to 6.00

Requested field: pIC50. Item: O=c1ccc2cnc(Nc3ccc(N4CCNCC4)c(F)c3)nc2n1C1Cc2ccccc2C1 5.00 to 6.00

Requested field: pIC50. Item: O=c1c(-c2ccccc2)cc2cnc(Nc3ccc(N4CCNCC4)cc3)nc2n1Cc1ccccc1C(F)(F)F > 6.00

Requested field: pIC50. Item: CN1CCN(c2ccc(Nc3ncc4ccc(=O)n(C5CCC(C)(C)c6ccccc65)c4n3)cc2)CC1 (centres unmarked) 5.00 to 6.00

* * *

Here, each record is paired with measured pIC50 data.
Target: UniProtKB O96013
Sequence (O96013 whole entry): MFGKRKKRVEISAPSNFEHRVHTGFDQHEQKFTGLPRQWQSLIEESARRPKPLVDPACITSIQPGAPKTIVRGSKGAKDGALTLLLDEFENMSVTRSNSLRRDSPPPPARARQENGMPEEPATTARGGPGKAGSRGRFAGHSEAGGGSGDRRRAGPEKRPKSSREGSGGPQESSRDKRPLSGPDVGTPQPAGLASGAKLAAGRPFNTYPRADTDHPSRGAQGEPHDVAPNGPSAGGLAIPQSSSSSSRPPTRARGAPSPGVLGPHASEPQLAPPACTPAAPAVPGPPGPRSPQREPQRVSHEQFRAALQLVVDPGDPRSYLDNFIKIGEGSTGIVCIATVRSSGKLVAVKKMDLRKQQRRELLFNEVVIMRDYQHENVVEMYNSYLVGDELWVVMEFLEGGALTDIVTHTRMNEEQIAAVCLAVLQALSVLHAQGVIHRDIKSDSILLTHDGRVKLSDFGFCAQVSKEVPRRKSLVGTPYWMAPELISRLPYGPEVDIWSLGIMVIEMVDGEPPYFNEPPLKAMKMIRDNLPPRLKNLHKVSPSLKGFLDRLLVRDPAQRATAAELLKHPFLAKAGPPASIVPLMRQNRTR
Experiment: Z'Lyte fluorescence-based (FRET) PAK kinase assay, PAK4
Type: biochemical
Conditions: Table 1 of Example 100; 5 μM ATP
pIC50: −log10 of the molar value.

# count of solved cases: 3
CN1CCN(c2ccc(Nc3ncc4ccc(=O)n(CC(=O)c5ccccc5)c4n3)cc2)CC1 = 5.00 to 6.00
CN1CCN(c2ccc(Nc3ncc4ccc(=O)n(C5CCC(C)(C)c6ccccc65)c4n3)cc2)CC1 (centres unmarked) = 5.00 to 6.00
Cc1cc(Nc2nccc(-c3ccc(NCCN)nc3)n2)ccc1N1CCN(C)CC1 = > 6.00

Requested field: pIC50. Item: CN1CCN(c2ccc(Nc3ncc4ccc(=O)n(C5Cc6ccccc6C5)c4n3)cc2)CC1 > 6.00

Requested field: pIC50. Item: CN1CCN(c2ccc(Nc3ncc4ccc(=O)n(Cc5ccccn5)c4n3)cc2)CC1 5.00 to 6.00

Requested field: pIC50. Item: CN1CCN(c2ccc(Nc3ncc4ccc(=O)n(Cc5cccnc5)c4n3)cc2)CC1 < 5.00

Requested field: pIC50. Item: CN1CCN(c2ccc(Nc3ncc4ccc(=O)n(C5CCc6ccccc6C5)c4n3)cc2)CC1 (centres unmarked) > 6.00

Requested field: pIC50. Item: O=c1c(-c2ccccc2)cc2cnc(Nc3ccc(NC4CCCNC4)cc3)nc2n1Cc1ccccc1C(F)(F)F (centres unmarked) 5.00 to 6.00

* * *

Molecular target: UniProt O96013
Assay: Z'Lyte fluorescence-based (FRET) PAK kinase assay, PAK4
Assay type: biochemical
Details: Table 1 of Example 100; 5 μM ATP
Here, each record is paired with measured IC50 data.

# count of solved cases: 5
O=c1ccc2cnc(Nc3ccc(OC4CCNCC4)cc3)nc2n1Cc1ccccc1C(F)(F)F [Compound 12] = < 1000 nM
COc1ccc(Cn2c(=O)ccc3cnc(Nc4ccc(N5CCN(C)CC5)cc4)nc32)cc1 [Compound 29] = > 10000 nM
Cc1ccccc1Cn1c(=O)ccc2cnc(Nc3ccc(N4CCN(C)CC4)cc3)nc21 [Compound 39] = 1000 to 10000 nM
CN(C)c1ccc(Nc2ncc3ccc(=O)n(C4CCCC4)c3n2)cc1 [Compound 3] = 1000 to 10000 nM
CN1CCN(c2ccc(Nc3ncc4ccc(=O)n(C5CCCC5)c4n3)cc2)CC1 [Compound 1] = 1000 to 10000 nM

Next molecule, IC50 to be filled in.
# value lookup — system UniProt O96013, readout IC50, item CN1CCCC(Nc2ccc(Nc3ncc4ccc(=O)n(Cc5ccccc5C(F)(F)F)c4n3)cc2)C1 (centres unmarked) [compound 61] < 1000 nM
